Biological target: T1, human RXFP3 (human, UniProt Q9NSD7 1-469)
T1 construct: whole, on cells; also called GPCR135; RXFP3 receptor
T1 sequence (looked up): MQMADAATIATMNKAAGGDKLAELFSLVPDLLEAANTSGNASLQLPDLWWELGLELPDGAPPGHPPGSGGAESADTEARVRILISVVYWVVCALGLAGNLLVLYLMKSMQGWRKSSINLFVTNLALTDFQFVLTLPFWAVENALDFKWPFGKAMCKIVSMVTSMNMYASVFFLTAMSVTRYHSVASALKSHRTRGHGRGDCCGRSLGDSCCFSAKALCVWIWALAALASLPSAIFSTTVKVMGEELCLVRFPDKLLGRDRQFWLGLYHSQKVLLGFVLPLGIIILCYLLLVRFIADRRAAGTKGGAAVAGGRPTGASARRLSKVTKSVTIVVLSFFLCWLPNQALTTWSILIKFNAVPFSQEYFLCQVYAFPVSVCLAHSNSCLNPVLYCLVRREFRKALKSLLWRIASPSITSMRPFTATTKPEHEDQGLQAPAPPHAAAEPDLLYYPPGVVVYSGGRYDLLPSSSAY
Assay: competition binding vs Eu-DTPA-R3/I5 on HEK-293T cells stably expressing human RXFP3, time-resolved fluorescence, n = 3
Where no end group is shown, it is not given here.
Criterion: pIC50 meeting or surpassing 6. Met: criterion met. Not met: criterion not met.

# Binder, Class Assignment
data = [
    ("AAPYGVRLSGREFIRAVIFTSR-NH2 (Synthetic single chain peptide) [H3 B2-22R]", "criterion met"),
    ("APYGVRLSGREFIRAVIFTSR-NH2 (Synthetic single chain peptide) [H3 B3-22R]", "criterion met"),
    ("YGVRLSGREFIRAVIFTSR-NH2 (Synthetic single chain peptide) [H3 B5-22R]", "criterion met"),
    ("RAAPYGVRLSGREFIRAVIFTSR-NH2 (Synthetic single chain peptide; also called R3 B1-22R; R3 1-22R) [H3 B1-22R]", "criterion met"),
    ("RAAPYGVRLSGREFIRAVIFTSGGSRW-OH (Synthetic single chain peptide; also called H3 relaxin B chain; native H3 B chain) [H3 B-chain C10/22S]", "criterion not met"),
]

Origin of values: patent US20140038895A1
